Hello, the source for this data is patent US9708251B2, in case you need it.

Assay: Emulsion stability testing of nonionic emulsifiers, aromatic solvent series
Format: physicochemical
Design: key: C = creamy; CO = creamy oil; O = oil; GC = gritty cream; NS = no separation; OC = oily cream
Conditions: Tebuconazole 360 g/L in N-methyl-2-pyrrolidone, 34 ppm water
Description: Nonionic samples contain a low amount of water (<1%) and are prepared as emulsifiable concentrates with three pesticides using two different solvent systems. In the aromatic solvent series, the nonionic sample replaces Toximul® 8240 (castor oil ethoxylate, 36 POE, Stepan), and in the Hallcomid™ (N,N-dimethylcaprylamide/N,N-dimethylcapramide, Stepan) solvent series, the nonionic sample replaces Ninex® MT-630F. […]
Measured Endpoint: 24 h separation, appearance

Known 24 h separation, appearance results, listed for orientation:
// field: 24 h separation, appearance; key: C=CCCCCCCCCOCCO ; value = GC

// field: 24 h separation, appearance; key: CCC=CCCCCCCCCOCCOCCOCCOCCOCCOCCOCCOCCOCCOCCOCCOCCOCCOCCOCCO (mixture of isomers) ; value = GC

// field: 24 h separation, appearance; key: C=CCCCCCCCCOCCOCCOCCO ; value = GC

// field: 24 h separation, appearance; key: CCC=CCCCCCCCCOCCO (mixture of isomers) ; value = GC

// field: 24 h separation, appearance; key: C=CCCCCCCCCOCCOCCOCCOCCOCCO ; value = CO

Continuing:
// field: 24 h separation, appearance; key: C=CCCCCCCCCOCCOCCOCCOCCOCCOCCOCCOCCOCCOCCOCCOCCOCCOCCOCCO ; value = CO

// field: 24 h separation, appearance; key: CCC=CCCCCCCCCOCCOCCOCCO (mixture of isomers) ; value = GC

// field: 24 h separation, appearance; key: CCC=CCCCCCCCCOCCOCCOCCOCCOCCO (mixture of isomers) ; value = GC

// field: 24 h separation, appearance; key: C=CCCCCCCCCOCCOCCOCCOCCOCCOCCOCCO ; value = CO

###

The entries below are paired with their reported Isotropic Opaque phase region.
Assay: Surfactant phase behavior study (cross-polarized microscopy)
Format: physicochemical
Conditions: room temperature, in deionized water

Known Isotropic Opaque phase region results, listed for orientation:
// field: Isotropic Opaque phase region; key: CCCCCCCCCCCCOCCOCCOCCO ; value = 0-28 % Actives Level

// field: Isotropic Opaque phase region; key: CCCCCCCCCCOCCOCCOCCO ; value = 0-28 % Actives Level

Continuing:
// field: Isotropic Opaque phase region; key: C=CCCCCCCCCOCCOCCOCCO ; value = 0-20 % Actives Level

// field: Isotropic Opaque phase region; key: CCC=CCCCCCCCCOCCOCCOCCO (mixture of isomers) ; value = 0-40 % Actives Level

###

Assay: Agrichemical solvent analysis: active solubility
Assay type: physicochemical
Settings: room temperature
The entries below are paired with their reported solubility of Tebuconazole in the solvent.
The reply should contain only the number, in weight percent.

Known solubility of Tebuconazole in the solvent results, listed for orientation:
// field: solubility of Tebuconazole in the solvent; key: CN1CCCC1=O [N-methyl-2-pyrrolidone, reference compound] ; value = 62.2

// field: solubility of Tebuconazole in the solvent; key: C=CCCCCCCCCOCCOCCOCCO ; value = 13.5

// field: solubility of Tebuconazole in the solvent; key: CCCCCCCCCC(=O)N(C)C [N,N-dimethylcapramide, reference compound] ; value = 38.8

Turning now to a further record.
// field: solubility of Tebuconazole in the solvent; key: C=CCCCCCCCCOCCOCCOCCOCCOCCO ; value = 13.0
